Entry source: the supplement of paper PMC11196671

Assay: PET hydrolysis product formed (TPA+MHET+BHET, UV-Vis) per mg enzyme (mmol/mg enzyme); higher = more PET depolymerisation activity; extreme values may be limits of the assay
Details: PET substrate: aFilm; 70 °C; pH 6.5; 24 h
Below is a list of entries, each paired with its recorded PET hydrolysis product formed value.
// response body must contain only the number

Example sequences with recorded PET hydrolysis product formed:
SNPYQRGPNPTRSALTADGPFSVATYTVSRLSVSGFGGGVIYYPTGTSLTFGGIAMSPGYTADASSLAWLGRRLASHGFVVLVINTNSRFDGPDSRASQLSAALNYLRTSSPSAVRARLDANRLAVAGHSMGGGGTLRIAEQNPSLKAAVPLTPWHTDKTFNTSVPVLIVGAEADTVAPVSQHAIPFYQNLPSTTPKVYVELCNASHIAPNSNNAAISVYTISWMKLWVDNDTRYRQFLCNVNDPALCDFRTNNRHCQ [LCC-ICCG] : 0.165
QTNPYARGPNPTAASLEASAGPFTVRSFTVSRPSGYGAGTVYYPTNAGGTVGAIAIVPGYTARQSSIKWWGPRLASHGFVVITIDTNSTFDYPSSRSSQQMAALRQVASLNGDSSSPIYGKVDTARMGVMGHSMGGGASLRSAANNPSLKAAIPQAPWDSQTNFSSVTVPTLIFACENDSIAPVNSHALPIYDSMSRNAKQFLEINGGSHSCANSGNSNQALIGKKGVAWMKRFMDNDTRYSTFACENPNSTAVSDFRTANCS [DuraPETase] : 0

Determine from records and report PET hydrolysis product formed for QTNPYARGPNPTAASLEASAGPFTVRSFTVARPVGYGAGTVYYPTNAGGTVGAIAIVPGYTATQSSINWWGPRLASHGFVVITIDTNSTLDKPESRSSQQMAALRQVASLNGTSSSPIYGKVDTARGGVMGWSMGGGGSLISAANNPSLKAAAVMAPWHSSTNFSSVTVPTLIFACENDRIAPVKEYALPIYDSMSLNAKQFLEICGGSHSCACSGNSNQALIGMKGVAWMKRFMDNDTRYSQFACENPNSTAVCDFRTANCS [HotPETase]
0.0334

* * *

Assay: PET hydrolysis product formed (TPA+MHET+BHET, UV-Vis) per mg enzyme (mmol/mg enzyme); higher = more PET depolymerisation activity; extreme values may be limits of the assay
Conditions: PET substrate: cryPow; 60 °C; pH 6.5; 24 h
Result Type: PET hydrolysis product formed
// response body must contain only the number

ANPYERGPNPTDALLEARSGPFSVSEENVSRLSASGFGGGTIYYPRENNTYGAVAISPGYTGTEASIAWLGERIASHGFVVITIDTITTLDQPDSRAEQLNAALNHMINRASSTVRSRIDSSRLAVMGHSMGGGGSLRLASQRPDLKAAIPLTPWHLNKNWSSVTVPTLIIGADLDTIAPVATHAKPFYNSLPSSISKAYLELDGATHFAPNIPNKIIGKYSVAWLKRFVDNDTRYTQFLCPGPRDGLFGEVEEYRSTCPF [TfCut2] : 0.00709

Determine from records and report PET hydrolysis product formed for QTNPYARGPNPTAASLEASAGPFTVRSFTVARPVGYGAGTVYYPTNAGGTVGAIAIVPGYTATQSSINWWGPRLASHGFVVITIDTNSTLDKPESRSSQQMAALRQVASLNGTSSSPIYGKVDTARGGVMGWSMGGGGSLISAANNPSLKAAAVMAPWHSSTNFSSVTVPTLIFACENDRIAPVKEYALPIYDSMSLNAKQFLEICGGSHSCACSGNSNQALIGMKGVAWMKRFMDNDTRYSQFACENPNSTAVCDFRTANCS [HotPETase]
0.14

Determine from records and report PET hydrolysis product formed for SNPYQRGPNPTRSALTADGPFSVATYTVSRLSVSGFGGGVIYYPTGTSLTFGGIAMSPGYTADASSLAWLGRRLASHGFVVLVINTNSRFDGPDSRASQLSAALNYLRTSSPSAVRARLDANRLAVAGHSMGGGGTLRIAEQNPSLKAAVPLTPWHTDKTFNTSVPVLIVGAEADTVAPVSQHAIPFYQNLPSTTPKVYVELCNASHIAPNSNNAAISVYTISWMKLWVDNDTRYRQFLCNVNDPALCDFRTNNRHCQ [LCC-ICCG]
0.09

* * *

Assay: terephthalic acid (TPA) released, HPLC; higher = more TPA released; extreme values may be limits of the assay
Conditions: PET substrate: aFilm; 70 °C; pH 5.5; 24 h
Result Type: terephthalic acid (mM)
Provide only the numeric value, understood in mM.

Example sequences with recorded terephthalic acid:
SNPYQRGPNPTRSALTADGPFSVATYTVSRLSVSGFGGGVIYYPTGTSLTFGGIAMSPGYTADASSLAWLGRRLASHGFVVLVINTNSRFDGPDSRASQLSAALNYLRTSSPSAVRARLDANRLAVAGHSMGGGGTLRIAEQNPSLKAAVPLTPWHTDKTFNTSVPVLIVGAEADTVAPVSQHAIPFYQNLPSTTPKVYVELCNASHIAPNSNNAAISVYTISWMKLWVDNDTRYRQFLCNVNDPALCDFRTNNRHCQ [LCC-ICCG] : 0.25
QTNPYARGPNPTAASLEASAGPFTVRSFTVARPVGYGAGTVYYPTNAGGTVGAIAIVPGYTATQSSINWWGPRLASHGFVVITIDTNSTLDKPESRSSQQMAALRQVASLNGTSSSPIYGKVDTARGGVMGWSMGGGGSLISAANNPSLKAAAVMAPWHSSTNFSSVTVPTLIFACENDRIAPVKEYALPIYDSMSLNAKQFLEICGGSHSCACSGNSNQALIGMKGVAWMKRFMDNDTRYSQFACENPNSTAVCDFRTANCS [HotPETase] : 0.00384

Let us examine a further case.
Determine from records and report terephthalic acid for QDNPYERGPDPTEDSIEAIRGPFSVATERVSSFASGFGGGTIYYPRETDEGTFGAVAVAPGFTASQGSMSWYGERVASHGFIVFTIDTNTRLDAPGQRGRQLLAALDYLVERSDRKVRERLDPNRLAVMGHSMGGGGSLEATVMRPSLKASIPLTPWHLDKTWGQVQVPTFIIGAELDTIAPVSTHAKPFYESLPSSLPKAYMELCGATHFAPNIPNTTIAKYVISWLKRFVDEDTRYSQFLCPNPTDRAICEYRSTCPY [Cut190*SS]
0

* * *

Assay: PET hydrolysis product formed (TPA+MHET+BHET, UV-Vis) per mg enzyme (mmol/mg enzyme); higher = more PET depolymerisation activity; extreme values may be limits of the assay
Conditions: PET substrate: aFilm; 70 °C; pH 9.5; 24 h
Result Type: PET hydrolysis product formed
// response body must contain only the number

Example sequences with recorded PET hydrolysis product formed:
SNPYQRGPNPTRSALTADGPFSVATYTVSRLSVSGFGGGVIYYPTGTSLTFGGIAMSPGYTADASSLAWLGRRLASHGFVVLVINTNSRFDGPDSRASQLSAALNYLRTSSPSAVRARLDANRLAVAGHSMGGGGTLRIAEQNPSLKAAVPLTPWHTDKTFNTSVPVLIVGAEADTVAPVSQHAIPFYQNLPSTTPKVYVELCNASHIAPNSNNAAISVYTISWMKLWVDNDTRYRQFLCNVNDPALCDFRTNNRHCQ [LCC-ICCG] : 0.901
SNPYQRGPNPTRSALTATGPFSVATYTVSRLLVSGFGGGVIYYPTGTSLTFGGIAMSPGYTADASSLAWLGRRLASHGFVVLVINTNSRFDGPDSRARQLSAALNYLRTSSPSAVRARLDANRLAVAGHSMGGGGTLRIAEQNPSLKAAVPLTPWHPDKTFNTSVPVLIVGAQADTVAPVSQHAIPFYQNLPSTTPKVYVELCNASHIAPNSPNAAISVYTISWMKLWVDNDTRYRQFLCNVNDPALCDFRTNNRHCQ [LCC-ICCG I6M] : 0.402
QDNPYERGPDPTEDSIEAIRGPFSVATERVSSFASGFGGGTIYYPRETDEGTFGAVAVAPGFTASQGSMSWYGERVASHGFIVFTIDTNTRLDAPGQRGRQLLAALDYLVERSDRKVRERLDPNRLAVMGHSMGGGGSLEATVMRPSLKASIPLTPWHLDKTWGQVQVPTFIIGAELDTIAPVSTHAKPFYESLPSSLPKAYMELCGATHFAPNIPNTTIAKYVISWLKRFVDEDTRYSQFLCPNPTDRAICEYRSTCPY [Cut190*SS] : 0.169

Let us examine a further case.
Determine from records and report PET hydrolysis product formed for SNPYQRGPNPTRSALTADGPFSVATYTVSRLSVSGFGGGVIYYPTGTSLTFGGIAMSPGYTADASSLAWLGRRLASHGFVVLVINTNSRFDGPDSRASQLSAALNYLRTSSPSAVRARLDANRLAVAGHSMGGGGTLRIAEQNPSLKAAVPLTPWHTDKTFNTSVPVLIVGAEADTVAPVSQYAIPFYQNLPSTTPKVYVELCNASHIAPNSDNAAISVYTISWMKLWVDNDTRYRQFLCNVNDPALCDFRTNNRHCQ [LCC-A2]
0.934
